Assign composite z-score to each entry below.
- System: Sam68 (KHDRBS1)
- assay-remarks: Sam68 small-molecule binders, primary screen, biochemical, small-molecule microarray, 635 nm fluorescence (AID 1125);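 also: score merges 667 nm channel intensity with signal to noise over triplicate slides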
- condition-summary: small-molecule microarray binding, higher = more signal
Give bare numbers.

Sample records with composite z-score:
[
  {
    "compound": "COC(=O)[C@H](C)NC(=O)CCC1CC(OC(=O)NCc2cccc3ccccc23)CC2(CCCC(COC(=O)NCCOc3ccccc3)O2)O1 (stereo partly specified)",
    "composite z-score": 1.23
  },
  {
    "compound": "COC(=O)[C@H](C)NC(=O)CCC1CC(OC(=O)NCc2cccc3ccccc23)CC2(CCCC(COC(=O)NCc3ccccc3)O2)O1 (stereo partly specified)",
    "composite z-score": 1.26
  },
  {
    "compound": "CC(CCC(=O)OC[C@H]1O[C@H](C#Cc2ccccc2)C=C[C@@H]1Oc1ccc(C)cc1)=NO[C@H](C)c1cn([C@@H]2COC[C@H]2O)nn1",
    "composite z-score": -0.0882
  },
  {
    "compound": "CCOC(=O)NN=C1C[C@@H](O)[C@@H](O)[C@@H]2[C@@H]3C(=O)N(CC)C(=O)[C@@H]3CC[C@H]12",
    "composite z-score": -0.221
  },
  {
    "compound": "CC(=O)OC[C@H]1O[C@H](CC=NOC(C)CN2CCCc3nc(C)c(C)cc32)C=C[C@@H]1OC(C)=O (stereo partly specified)",
    "composite z-score": 1.2
  }
]

I would be grateful if you could provide composite z-score for each of the following entries.
1. CO[C@H]1COC(=O)CC=C[C@H](C)[C@H](OC)COC(=O)[C@@H](C)NC(=O)CC=C[C@@H]1C
2. COC(=O)CC=C1c2ccccc2[C@H](OC)[C@H]1C
3. COC(=O)CC=C[C@@H](C)[C@@H](C=NOC[C@@H](O)[C@H]1O[C@@H]2OC(C)(C)O[C@@H]2[C@H]1O)OC
4. CC(=O)OC[C@H]1O[C@H](CC=NOC[C@@H](O)COCc2ccco2)C=C[C@@H]1OC(C)=O
5. CC(=O)OC[C@H]1O[C@H](CCON=C(C)CCN2CCCc3nc(C)c(C)cc32)C=C[C@@H]1OC(C)=O
6. CO[C@@H]1COC(=O)CC=C[C@H](C)[C@H](OC)COC(=O)[C@@H]2CCCN2C(=O)CC=C[C@H]1C

[-0.445, -0.742, 0.444, 0.586, 1.29, 0.442]

I would be grateful if you could provide composite z-score for each of the following entries.
1. CC(=O)OC[C@H]1O[C@H](C#CCC2CCCCC2)C=C[C@@H]1OC(C)=O
2. COc1cccc([C@H](O)Cn2cc(-c3ccc(CON=C(C)C)cc3)nn2)c1
3. CCOC(=O)CCN1C(=O)[C@H]2[C@H]3[C@H](O)[C@H](O)CC(=NNC(=O)OCC)[C@H]3CC[C@H]2C1=O
4. COC(=O)CC=C[C@@H](C)[C@@H](C=NOC[C@@H](C)[C@H](OCc1ccccc1)C(C)C)OC

1. 0.953
2. -0.937
3. 0.398
4. 0.447

Form field composite z-score, entry CC(C)=CCCC(C)=CCON=C1C[C@@H](O)[C@@H](O)[C@@H]2[C@@H]3C(=O)N(Cc4ccc5c(c4)OCO5)C(=O)[C@@H]3CC[C@@H]12 : 1.31
